B1: CCNC (parent)
chain: QSSHYLQWILDKQDLLKERQKDLK

variants of: B1; test: protein stability index of a GFP-peptide fusion (GPS, HEK-293T) (PSI 1-6); higher = more stable; settings: c terminus: a fixed tail appended;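 note: lentivirally expressed fusions sorted by FACS into six bins by GFP to DsRed ratio, PSI derived from sequencing read proportions per bin multiplied by bin number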

{"columns": ["Biosequence", "protein stability index"],
 "data": [
  ["QSSHYKQWILDKQDLLKERQKDLK", 3.92],
  ["QSSHYLQNILDKQDLLKERQKDLK", 4.46],
  ["QSSHYLQWIVDKQDLLKERQKDLK", 3.09],
  ["QSSHYLQWILDKQDLLKRRQKDLK", 2.63],
  ["QSSHYLQWILDKQDLLKERQNDLK", 2.57],
  ["QSSHYLQWDLDKQDLLKERQKDLK", 4.82],
  ["QSSHYLQWILDKQDLLKERQPDLK", 3.42],
  ["QSSHYLNWILDKQDLLKERQKDLK", 2.84],
  ["QSSHYIQWILDKQDLLKERQKDLK", 2.83],
  ["QSSHYLQWILDKQDLLKERQKDTK", 3.27],
  ["QSSHYLQWILDKQDLLKERQKDAK", 3.41],
  ["QSSHYLQWILDKQDLLKHRQKDLK", 2.54],
  ["QSSHNLQWILDKQDLLKERQKDLK", 3.8],
  ["QSSHYLQKILDKQDLLKERQKDLK", 3.87],
  ["QSSHYLQWILDKQDKLKERQKDLK", 3.66],
  ["QSSHYLQWILDKQDLLKERTKDLK", 3.2],
  ["QSSHYLQWILDKTDLLKERQKDLK", 2.7],
  ["QSSHYLQWILDKQDLLMERQKDLK", 3.14],
  ["QSSHYLQWILDKQDLLKERQDDLK", 2.83],
  ["QSSHYLQWIEDKQDLLKERQKDLK", 4.29],
  ["QSSHYLQWILDKQDLLKERQSDLK", 2.84],
  ["QSSHYLQWILDKQDLLKERQKDLG", 3.1],
  ["QSSHYLQWILDKQDLLKERQKHLK", 3.02],
  ["QSSHYLQWILDKQDLLKERQQDLK", 3.02],
  ["QSSHYLQWILDKQDLLKERQKDMK", 3.31],
  ["QSSHYLQWILDKQDLLKERQKDLL", 3.19],
  ["QSSHYLAWILDKQDLLKERQKDLK", 2.39],
  ["QSSHYLQWILDKQDLWKERQKDLK", 2.92],
  ["QSSHYLQWILDKQDLCKERQKDLK", 3.52],
  ["QSSHYLQWILDKQDNLKERQKDLK", 3.33],
  ["QSSHYLQWILDKQDLLKERFKDLK", 2.67],
  ["QSSHYLQWILDKQDLLKERLKDLK", 2.17],
  ["QSSHYLHWILDKQDLLKERQKDLK", 3.58],
  ["QSSHYLQWILDKQDLLKERQKSLK", 2.59]
]}
